Overview of recorded Ki for various molecules
# method_summary: In vitro binding affinity towards N-methyl-D-aspartate glutamate receptor of the glutamate receptor using [3H]CPP as radioligand in rat cerebral cortical membranes.
# Assay type: cell membranes, Membrane
// return numeric value only (unit: nM, not printed)

molecule | Ki / nM
O=C(O)[C@@H]1C[C@H](CP(=O)(O)O)CCN1 [SELFOTEL] | 99
N[C@H](CC(=O)CP(=O)(O)O)C(=O)O | 109
NC(CCCCCP(=O)(O)O)C(=O)O (stereo not given) [AP-7] | 730
O=C(O)C1CN(CCCP(=O)(O)O)CCN1 (stereo not given) | 131

// moving on: another record for Ki
## Input For the molecule NC(CCCP(=O)(O)O)C(=O)O (stereo not given) , report Ki.
## Output 176

From: ChEMBL document CHEMBL1125148
